Test system: human liver cancer cell lines (HepG2)
Experiment: MTT cytotoxicity assay, HepG2 cells
Details: HepG2, 24 h, read-out: IC50 Values, cytotoxicity, HepG2
ATTRIBUTE_MEASURED: IC50 (µM)
Note: unit µM is implicit; provide only the numeric part.

Use these answered entries as a reference point.
{"MOLECULE": "COC(=O)[C@]12CC[C@@H](C)[C@H](C)[C@H]1C1=CC[C@@H]3[C@@]4(C)CC[C@H](O)C(C)(C)[C@@H]4CC[C@@]3(C)[C@]1(C)CC2 [Compound 4, ursolic-28-methylate]", "MEASUREMENT_TARGET": "human liver cancer cell lines (HepG2)", "IC50 / µM": 1.6}
{"MOLECULE": "CC1(C)CC[C@]2(C(=O)O)CC[C@]3(C)C(=CC[C@@H]4[C@@]5(C)CC[C@H](O)C(C)(C)[C@@H]5CC[C@]43C)[C@@H]2C1", "MEASUREMENT_TARGET": "human liver cancer cell lines (HepG2)", "IC50 / µM": 1.2}
{"MOLECULE": "CC(=O)O[C@H]1CC[C@]2(C)[C@H]3CC=C4[C@@H]5[C@@H](C)[C@H](C)CC[C@]5(C(=O)O)CC[C@@]4(C)[C@]3(C)CC[C@H]2C1(C)C", "MEASUREMENT_TARGET": "human liver cancer cell lines (HepG2)", "IC50 / µM": 0.85}
{"MOLECULE": "COC(=O)[C@]12CC[C@@H](C)[C@H](C)C1C1=CCC3[C@@]4(C)CC[C@H](OC(C)=O)C(C)(C)C4CC[C@@]3(C)[C@]1(C)CC2 (some centres unmarked) [Compound 5, 3-acetylursolic-methylate]", "MEASUREMENT_TARGET": "human liver cancer cell lines (HepG2)", "IC50 / µM": 0.85}

// next item, IC50 requested
Exam item: Give the measured IC50 of C[C@H]1[C@H](C)CC[C@]2(C(=O)O)CC[C@]3(C)C(=CC[C@@H]4[C@@]5(C)CC[C@H](O)C(C)(C)[C@@H]5CC[C@]43C)[C@H]12 .
Marked response: 0.261

* * *

Recorded IC50 by entry
System: breast adenocarcinoma cancer cell lines (MDA)
Test: MTT cytotoxicity assay, MDA cells
Conditions: Homo sapiens, 24 h, read-out: IC50 Values, cytotoxicity, MDA
Note: unit µM is implicit; provide only the numeric part.

Exam item: Give the measured IC50 of CC(=O)O[C@H]1CC[C@]2(C)[C@H]3CC=C4[C@@H]5[C@@H](C)[C@H](C)CC[C@]5(C(=O)O)CC[C@@]4(C)[C@]3(C)CC[C@H]2C1(C)C .
Marked response: 3.93

Exam item: Then this molecule: COC(=O)[C@]12CC[C@@H](C)[C@H](C)[C@H]1C1=CC[C@@H]3[C@@]4(C)CC[C@H](O)C(C)(C)[C@@H]4CC[C@@]3(C)[C@]1(C)CC2 [Compound 4, ursolic-28-methylate]
Marked response: 2.48

Exam item: Then this molecule: CC1(C)CC[C@]2(C(=O)O)CC[C@]3(C)C(=CC[C@@H]4[C@@]5(C)CC[C@H](O)C(C)(C)[C@@H]5CC[C@]43C)[C@@H]2C1
Marked response: 4.48

Exam item: Then this molecule: COC(=O)[C@]12CC[C@@H](C)[C@H](C)C1C1=CCC3[C@@]4(C)CC[C@H](OC(C)=O)C(C)(C)C4CC[C@@]3(C)[C@]1(C)CC2 (some centres unmarked) [Compound 5, 3-acetylursolic-methylate]
Marked response: 1.9

* * *

Test: MTT cytotoxicity assay, KMST-6 cells
Format: cell-based, human
Conditions: human
Recorded IC50 at 24 h by entry

Use these answered entries as a reference point.
{"COMPOUND": "CC(=O)O[C@H]1CC[C@]2(C)[C@H]3CC=C4[C@@H]5[C@@H](C)[C@H](C)CC[C@]5(C(=O)O)CC[C@@]4(C)[C@]3(C)CC[C@H]2C1(C)C [Compound 3, 3-O-acetyl ursolic acid]", "IC50 at 24 h": "4.88 µM"}
{"COMPOUND": "COC(=O)[C@]12CC[C@@H](C)[C@H](C)[C@H]1C1=CC[C@@H]3[C@@]4(C)CC[C@H](O)C(C)(C)[C@@H]4CC[C@@]3(C)[C@]1(C)CC2 [Compound 4, ursolic-28-methylate]", "IC50 at 24 h": "> 5 µM"}

Exam item: Give the measured IC50 at 24 h of COC(=O)[C@]12CC[C@@H](C)[C@H](C)C1C1=CCC3[C@@]4(C)CC[C@H](OC(C)=O)C(C)(C)C4CC[C@@]3(C)[C@]1(C)CC2 (stereo partly drawn) [Compound 5, 3-acetylursolic-methylate] .
Marked response: > 5 µM
